Molecular target: Ataxin-2 (Homo sapiens) (UniProt Q99700)
Sequence (Q99700 whole entry): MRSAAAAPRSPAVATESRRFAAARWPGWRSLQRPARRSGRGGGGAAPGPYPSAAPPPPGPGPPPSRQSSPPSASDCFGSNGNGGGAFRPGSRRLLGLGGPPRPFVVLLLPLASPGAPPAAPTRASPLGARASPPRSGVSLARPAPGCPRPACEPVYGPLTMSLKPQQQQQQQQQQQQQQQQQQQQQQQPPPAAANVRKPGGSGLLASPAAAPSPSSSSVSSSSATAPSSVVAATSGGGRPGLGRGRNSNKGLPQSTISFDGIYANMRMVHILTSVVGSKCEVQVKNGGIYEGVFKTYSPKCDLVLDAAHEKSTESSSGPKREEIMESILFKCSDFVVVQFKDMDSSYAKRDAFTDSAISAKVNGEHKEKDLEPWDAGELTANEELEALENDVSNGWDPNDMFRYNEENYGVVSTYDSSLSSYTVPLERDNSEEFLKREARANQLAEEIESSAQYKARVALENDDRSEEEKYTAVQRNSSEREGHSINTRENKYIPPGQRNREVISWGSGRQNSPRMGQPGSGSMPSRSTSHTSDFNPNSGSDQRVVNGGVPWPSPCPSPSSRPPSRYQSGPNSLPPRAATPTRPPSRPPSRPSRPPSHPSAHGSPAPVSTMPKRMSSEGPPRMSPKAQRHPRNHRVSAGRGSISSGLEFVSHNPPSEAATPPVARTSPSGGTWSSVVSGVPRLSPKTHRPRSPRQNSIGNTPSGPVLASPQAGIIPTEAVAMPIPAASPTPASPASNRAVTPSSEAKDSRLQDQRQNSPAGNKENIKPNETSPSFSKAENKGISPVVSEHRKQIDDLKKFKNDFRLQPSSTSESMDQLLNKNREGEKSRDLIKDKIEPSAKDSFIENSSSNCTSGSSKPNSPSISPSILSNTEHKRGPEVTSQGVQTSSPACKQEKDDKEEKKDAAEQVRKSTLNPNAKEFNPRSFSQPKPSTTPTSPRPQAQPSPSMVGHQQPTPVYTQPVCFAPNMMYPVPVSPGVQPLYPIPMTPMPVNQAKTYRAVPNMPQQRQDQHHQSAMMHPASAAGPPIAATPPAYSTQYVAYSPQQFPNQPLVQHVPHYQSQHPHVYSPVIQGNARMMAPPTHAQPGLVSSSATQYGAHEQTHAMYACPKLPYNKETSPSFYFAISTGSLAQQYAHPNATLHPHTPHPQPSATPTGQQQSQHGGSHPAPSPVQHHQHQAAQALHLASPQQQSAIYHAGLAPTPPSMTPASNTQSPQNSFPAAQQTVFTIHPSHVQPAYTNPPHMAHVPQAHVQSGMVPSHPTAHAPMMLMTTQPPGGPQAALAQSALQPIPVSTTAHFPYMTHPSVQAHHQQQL
Assay: qHTS for Inhibitors of ATXN expression.
Format: functional
The whole screen tested about 400,000 compounds, of which about 2,100 (0.53%) were called active. Another 14% or so got no clear call; they are omitted. No rule for the calls is given here. The entries come from a sample that favours actives as a whole.
Entry note: the call must match one of active, inactive

Answered examples (4):
| Smiles entry | Category |
| --- | --- |
| CC1(C)C(=O)C=CC(=O)C(C)(C)C(=O)C=CC(=O)C(C)(C)C2=CC=C(O2)C(C)(C)C(=O)C=CC1=O | active |
| COCCCn1c(=N)c(C(=O)NC2CCCCC2)cc2c(=O)n3cc(C)ccc3nc21 | inactive |
| COC(=O)c1ccc2nc(C3CCCCC3)c(CC(C)(C)C)n2c1 | active |
| Cc1ccc(CCC(=O)Nc2ccc(Br)cc2)o1 | inactive |

Shift focus to the following entry.
Req: I'd appreciate the recorded outcome for `COC(=O)C1=CN(C2CC2)C=C(C(=O)OC)C1c1ccc(C(=O)OC)cc1` from this test.
Resp: inactive

====

Target: Ataxin-2 (Homo sapiens)
Test: qHTS for Inhibitors of ATXN expression.
Assay type: functional
About 2,100 (0.53%) of roughly 400,000 compounds were called active. Another 14% or so got no clear call; they are omitted. How the calls were made is not given here. This is one part of a sample in which actives are shown more often than they occur.
Thanks in advance; please answer with one of these: active, inactive

| Compound | Test system | Category |
| --- | --- | --- |
| Clc1ccc2c(N/N=C/c3cccc(Br)c3)ccnc2c1 | Ataxin-2 (Homo sapiens) | active |
| O=[N+]([O-])c1ccc(Cl)cc1N/N=C/c1ccncc1 | Ataxin-2 (Homo sapiens) | inactive |
| COc1ccc(/C=C/CN2CCCC(CCC(=O)NCc3ccc(F)c(F)c3)C2)cc1 (stereo unspecified) | Ataxin-2 (Homo sapiens) | inactive |
| N#Cc1c(-c2ccccc2)c(C#N)c2nc3ccccc3n2c1N | Ataxin-2 (Homo sapiens) | inactive |
| Cn1nnnc1SCC1=C(C(=O)O)N2C(=O)C(NC(=O)Cn3nc(C(F)F)cc3C3CC3)C2SC1 (stereo unspecified) | Ataxin-2 (Homo sapiens) | inactive |
| FC(F)(F)c1ccccc1/C=N/Nc1ccccn1 | Ataxin-2 (Homo sapiens) | inactive |
| Cc1ccc(CNCc2c(C(=O)O)n(Cc3ccc(C)cc3)c3cc(C)ccc23)cc1 | Ataxin-2 (Homo sapiens) | active |
| CCOc1ccc(CNCc2c(C(=O)O)n(Cc3ccc(C)cc3)c3cc(C)ccc23)cc1 | Ataxin-2 (Homo sapiens) | active |
| Cc1ccccc1/C=N/Nc1ccnc2cc(Cl)ccc12 | Ataxin-2 (Homo sapiens) | active |
| CCOc1ccc(-c2oc3ccc(C)cc3c(=O)c2O)cc1 | Ataxin-2 (Homo sapiens) | inactive |

Req: Hey, what did the test say about `CCOc1ccc(C2C(C(=O)OC)=CN(CCOC)C=C2C(=O)OC)cc1` ?
Resp: inactive

====

Target: Ataxin-2 (Homo sapiens) (UniProt Q99700)
Assay: qHTS for Inhibitors of ATXN expression.
Type: functional
Hit rate of the full screen: of about 400,000 compounds, about 2,100 (0.53%) were called active. Roughly 14% stayed inconclusive and do not appear here. The rule behind the calls is not given here. Shown is part of a subset that was picked to be rich in actives.
Would you mind answering with one of these outcomes? active, inactive

Req: What is the recorded call for this compound in the test? Cc1cccn2c(=O)c3cc(C(=O)NCC4CCCO4)c(=N)n(CCc4ccccc4)c3nc12 (stereo not given)
Resp: inactive

Req: Hi, sorry to bother you, what did the test record for `COc1ccc2nc(C)cc(N/N=C/c3cccc(OC)c3O)c2c1` ?
Resp: active

Req: Which result was noted for this compound in the test: `CCOC(=O)c1sc(-c2ccc(Cl)cc2Cl)nc1O`
Resp: inactive

Req: Entry `COc1ccc2cc(/C=N/NC(=O)CN(c3ccccc3C)S(=O)(=O)c3ccccc3)c(Cl)nc2c1` : call = ?
Resp: inactive

Req: Give the logged outcome of this assay for the following compound: `COc1cccc(/C=N/n2c(SC)nnc2-c2ccccc2)c1O`
Resp: inactive

====

Target: Ataxin-2 (Homo sapiens) (UniProt Q99700)
Assay: qHTS for Inhibitors of ATXN expression.
Format: functional
Out of some 400,000 compounds screened, about 2,100 (0.53%) were called active. Inconclusive results (about 14%) are left out. Many of the other results were omitted from the sample, so actives are more common in it than they were.
Parameter: Potency

Take a look at these entries with their results.
| Molecule | Reported measurement |
| --- | --- |
| COC(=O)Cc1cc(=O)oc2c(C)c(O)ccc12 | inactive |
| O=[N+]([O-])c1cc(/C=N/N=C(/Nc2ccccn2)c2ccccn2)ccc1O | 2670 nM (active) |
| CC1CCc2nc(/C(C#N)=C/c3ccncc3)sc2C1 (stereo unspecified) | inactive |
| CCOc1cc(C(=O)O)ccc1OCCOc1ccccc1 | inactive |
| CC(NC(=O)c1cc2c(=O)n3ccccc3nc2n(CC2CCCO2)c1=N)c1ccccc1 (stereo unspecified) | inactive |

Field: next molecule
Req: Consider the molecule shown here: `CC1(C)C(=O)Nc2ccccc2N1C(=O)COC(=O)Cc1ccc(Cl)c(Cl)c1` What is its recorded Potency?
Resp: inactive

====

Target: Ataxin-2 (Homo sapiens) (UniProt Q99700)
Experiment: qHTS for Inhibitors of ATXN expression.
Assay type: functional
The campaign covered roughly 400,000 compounds. About 2,100 (0.53%) were called active. Not shown: some 14% with an inconclusive outcome. No rule for the calls is given here. Only a selection was taken, and actives are over-represented in it overall.
Entry note: the call must match one of Yes for active, No for inactive

| Molecule | Category |
| --- | --- |
| C=C(C)COc1ccc(-c2ncncc2-c2ccc(Br)cc2)c(O)c1 | No |
| Cc1ccc(CNC(=O)CN(c2ccc(C(C)C)cc2)S(=O)(=O)c2c(C)n[nH]c2C)cc1 | Yes |

Req: How did this test come out for `Cc1cc(S(=O)(=O)NC(C)C)ccc1OCC(=O)NCc1ccccc1` ?
Resp: No

Req: Tell me the recorded outcome of this test for `COc1ccc2sc(-c3ccccc3OC)c(-c3ccc(OCCN(C)C)cc3)c2c1` .
Resp: Yes

Req: Tell me the recorded outcome of this test for `CCCNC(=O)c1c(N)n(-c2cccc(OC)c2)c2nc3ccccc3nc12` .
Resp: No

Req: So what was the verdict on Cc1c(Cl)cccc1N(CC(=O)NC(C)c1ccccc1)S(C)(=O)=O (configuration not stated) in this test?
Resp: No

Req: What is the recorded call for this molecule in the test? `COC(=O)c1c(-c2ccc(N(C)C)cc2)sc2ccc(OC)cc12`
Resp: No

Req: Please indicate how the test categorized `CCN(CC)S(=O)(=O)c1cccc(C(=O)N/N=C(\C)c2ccc(O)cc2O)c1` .
Resp: No

Req: Answer briefly: the call reported for `CCc1nc2ccc(C(=O)Nc3ccc(OC)c(OC)c3)cn2c1N(C)CCC(C)C` in this assay.
Resp: Yes

Req: Recorded test outcome, item `O=[N+]([O-])c1cc2c(cc1/C=N/n1cnnc1)OCO2`
Resp: No

====

Target: Ataxin-2 (Homo sapiens)
Experiment: qHTS for Inhibitors of ATXN expression.
Assay type: functional
Screen size: about 400,000 compounds; about 2,100 (0.53%) were called active. Not shown: some 14% with an inconclusive outcome. The rule behind the calls is not given here. Many of the other results were omitted from the sample, so actives are more common in it than they were.
Pick one: active, inactive

Here's what some known entries look like.
| Compound | Category |
| --- | --- |
| COc1ccc2c(c1)CCC1=C2N=C(S)NC1c1ccc(N(C)C)cc1 (stereo not given) | inactive |
| COCc1cc(O)nc(-c2ccc(C(F)(F)F)cc2)n1 | inactive |
| Cc1ccc(S(=O)(=O)NN=C2CCc3ccccc32)cc1 | inactive |
| Cc1cccc(OCc2nnc(SCC(=O)O)n2-c2ccccc2)c1 | active |
| Cc1ccc(NCc2nnc(SCC(=O)O)n2-c2ccc(C)cc2)cc1 | inactive |
| COc1ccc(N2CCN(C(=O)c3ccc(Cn4c(=S)[nH]c5ccc(N6CCOCC6)cc5c4=O)cc3)CC2)cc1 | inactive |
| O=C1c2cccnc2C(=O)N1Cc1ccc(F)cc1S(=O)(=O)NCc1ccco1 | inactive |
| O=S(=O)(CCN1C=CC(C(F)(F)F)=NCC1)c1ccc(Cl)cc1Cl | inactive |
| CCCCNC(=O)c1ccc(Cn2c(=S)[nH]c3c([nH]c4ccc(OC)cc43)c2=O)cc1 | active |

Turning now to a further compound:
Req: Name the outcome recorded for `CCc1cc(=O)oc2c3c(c(Cl)cc12)OCN(Cc1cccc(OC)c1)C3` in the assay.
Resp: inactive

====

Biological target: Ataxin-2 (Homo sapiens) (UniProt Q99700)
Assay: qHTS for Inhibitors of ATXN expression.
Format: functional
Out of some 400,000 compounds screened, about 2,100 (0.53%) were called active. About 14% were inconclusive and are not listed. How the calls were made is not given here. The sample holds actives, similar compounds and a random draw of the others, so the mix is not that of the screen.
Select the matching outcome among TRUE = active, FALSE = inactive

Example entries and their recorded answers appear below.
| Compound | Category |
| --- | --- |
| COC(=O)c1sc(-c2ccc(C(C)(C)C)cc2)cc1NC(=O)/C=C/C(=O)O | TRUE |
| CCCn1nc(NC(=O)CC(C)C)c2cc3cccc(C)c3nc21 | FALSE |
| C=CC[C@@H](Cc1ccc(F)cc1)C(=O)OC[C@H]1CCCN1C(=O)[C@@H](CC=C)CC(=O)N(CCO)Cc1ccccc1 | TRUE |
| COCc1ccc(C(=O)Nc2ccccc2C(=O)NCc2cccnc2)cc1 | FALSE |
| CC(C)(C)OC(=O)NCc1ccc(NC(=O)c2[nH]cnc2C(=O)N[C@@H](Cc2ccccc2)C(=O)OCc2ccccc2)cc1 | TRUE |

Req: So what was the verdict on `Cc1nn(CCN)c(C)c1Cl` in this test?
Resp: FALSE

Req: Entry `COC(=O)c1sc(-c2ccc(Cl)cc2)cc1NC(=O)/C=C/C(=O)O` : call = ?
Resp: TRUE

Req: I would be grateful if you could indicate the recorded call for `Cc1cc(C)c2oc(C(=O)N3CCN(C)CC3)cc(=O)c2c1` .
Resp: FALSE

Req: Could you kindly confirm the outcome this assay logged for `Cc1cc2nc(-c3cccnc3O)[nH]c2cc1C` ?
Resp: FALSE

Req: Could you kindly confirm the outcome this assay logged for `O=C(O)CSCC(=O)NCc1csc2ccc(Cl)cc12` ?
Resp: FALSE

Req: Recorded call for O=C(C1=NN(c2ccccc2)C2C(=O)N(c3ccccc3Cl)C(=O)C12)c1ccccc1 (stereo unspecified) ?
Resp: FALSE
